Readings of (pH) Value for the listed compounds
assay: pH testing of test substances (pH strips, probe and meter); assay type: physicochemical; settings: Table 5; test substance dissolved in 150 ml distilled water

COMPOUND	(pH) Value
OC[C@@H](O)[C@@H](O)CO [Erythitol, Erythritol]	6.3
OC[C@@H](O)[C@@H](O)[C@H](O)[C@H](O)CO [Mannitol]	6.7
O=P([O-])([O-])O.[Ca+2] [Calcium Phosphate Dibasic, Calcium phosphate dibasic]	8.5
[O]=[Mg] [Magnesium Oxide MgO, Magnesium oxide]	9.1
OC[C@@H](O)[C@H](O)[C@@H](O)CO [Xylitol]	6.5
